Reported EC50 mouse is given for each of the following binders.
targetEntity: T1, mouse GLP-1 receptor (mouse, UniProt O35659 22-463)
T1 sequence (looked up): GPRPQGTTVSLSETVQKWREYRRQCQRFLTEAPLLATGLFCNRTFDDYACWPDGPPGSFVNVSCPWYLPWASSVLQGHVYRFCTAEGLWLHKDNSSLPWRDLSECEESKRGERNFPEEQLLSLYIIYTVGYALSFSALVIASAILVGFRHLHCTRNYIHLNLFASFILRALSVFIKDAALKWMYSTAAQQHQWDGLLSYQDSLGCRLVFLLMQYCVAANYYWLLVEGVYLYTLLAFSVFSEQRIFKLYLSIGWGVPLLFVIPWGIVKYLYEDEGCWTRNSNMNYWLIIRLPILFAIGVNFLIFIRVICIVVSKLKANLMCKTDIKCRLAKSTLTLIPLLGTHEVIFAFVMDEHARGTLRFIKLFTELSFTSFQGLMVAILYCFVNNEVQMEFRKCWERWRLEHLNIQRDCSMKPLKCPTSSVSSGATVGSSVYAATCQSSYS
measurementDescription: cell-based or functional assay
Non-standard residues stand in square brackets, D forms with d. Primed or numbered codes have the meaning given here. No end group written: not given here. Aib′ = alpha aminobutyric acid (source's wording)
measurementKind: EC50 mouse

>>> valuemeasured("HGEGTFTSDVSSYLE[Aib′]QAAKEFIAWLVKGRGC(mPEG‑maleimide 20 kDa)G-NH2 [mgGLP-16 (SEQ ID NO: 20 + 20k PEG)]")
"1.6 nM"
>>> valuemeasured("HGEGTFTSDVSSYLE[Aib′]QAAKEFIAWLVKGRGC(mPEG‑maleimide 20 kDa)SG (also called cgGLP-19) [mgGLP19 & cgGLP- (SEQ ID NO: 21 + 20k PEG)]")
"4 nM"
>>> valuemeasured("HGEGTFTSDVSSYLE[Aib′]QAAKEFIAWLVKGRG-NH2 [HGEGT FTSDV SSYLE [Aib]QAAK EFIAW LVKGR G-AMIDE (SEQ ID NO: 15)]")
"0.12 nM"
